Quick reference: CC50 of the listed items.
PROTOCOL: Cytotoxicity test group of the CPE assay (no virus added, CCK-8 kit)
Assay type: cell-based
RUN_PARAMETERS: dog, MDCK cells

Please review the following examples before continuing.
>>> result("COc1cccc2c1-c1ccsc1-c1ccccc1C2N1[C@@H]2COCCN2C(=O)c2c(O)c(=O)ccn21 (stereo in doubt)")
"> 100 µM"
>>> result("O=C1c2c(O)c(=O)ccn2N([C@H]2c3ccc(F)cc3-c3ccsc3-c3ccccc32)[C@@H]2COCCN12 (mixture of isomers)")
"104 µM"
>>> result("O=C1c2c(O)c(=O)ccn2N([C@H]2c3ccccc3-c3ccsc3-c3ccccc32)[C@@H]2COCCN12 (racemic)")
"> 100 µM"
>>> result("O=C1c2c(O)c(=O)ccn2N([C@H]2c3ccccc3-c3ccsc3-c3ccccc32)[C@H]2COCCN12 (racemic)")
"> 100 µM"

Data request, read-out CC50, for O=C1c2c(O)c(=O)ccn2N(C2c3ccccc3SCc3c2ccc2ccccc32)C2COCCN12 (centres unmarked)
> 100 µM
